# System: uterine muscle isolated from pregnant rats
# TEST_DETAILS: Interaction of MN-221 and β-adrenoceptor antagonists on spontaneous contraction of uterine muscle isolated from pregnant rats (Schild regression)
# Type: cell-based, rat
# CONDITION_SET: Rattus norvegicus, MN-221 after pretreatment with CGP 20712A 1 × 10^−8 mol/L; read-out: EC50
MEASURED_QUANTITY: EC50

Task: Look up and state reported EC50 for CN(C)C(=O)COc1ccc2c(c1)C[C@@H](NC[C@H](O)c1ccc(O)c(CCO)c1)CC2
Result: 0.868 nM
